meta.source: the supplement of paper PMC6555819

system: LXRb:RXRa (NR concentration 270 nM, RXRa partner concentration 90 nM); assay: PBM binding z-score (relative to random genomic background probes); higher = stronger binding; sequences stand for … in GC…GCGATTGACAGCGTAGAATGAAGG
reported.property: PBM binding z-score
Give bare numbers.

AATACAGGGTCACGAGGCCAGAGTAGGTACGAAT :: 4.97

// each listed sequence needs a value for PBM binding z-score
1. CGAACTAGGTCTAAGGACAGTGAAAGGCGACGTA
2. TGTCAACGTTCAAAGGTAACGTAAGTATCCACAC
3. CAAACTAGGTCACGAGAGGTCAAAGTCGAATGAC
4. TCTGCTAGGTCATCGATGGTCAGCTAATCTGCTA

Reply:
1: -0.844; 2: 0.759; 3: 7.33; 4: 1.73

---

Hi there, I'd appreciate the recorded PBM binding z-score for every entry that follows.
tested on: RARa homodimer (NR concentration 270 nM); test: PBM binding z-score (relative to random genomic background probes); higher = stronger binding; sequences stand for … in GC…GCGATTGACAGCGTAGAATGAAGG
Answers are plain numbers.

CCTTACGGGTCACGAGGTTGTAGCACGACGAGCG :: 0.412
AGTCAAAGGTCATCTAGGTAACGTAAGATATGCT :: 2.2
ATCTCTAGGTTAAGATAGTTCAGTGAATGCAAAT :: 2.08
ATATGTAGGATAGCTGGGGTCATTCAGACTAGGC :: 1.21
CCTAGTGGGCCAAGGTCATTGATCAGTCAAAGCA :: 0.113
TAGCCTAGGTTATGGGCCAGTATACCACGCGAAC :: -0.107

// each listed sequence needs a value for PBM binding z-score
1. CCTAGCAGGCCAATCTAGGTCACTCAAGGCTTGA
2. TCTAGTTGGTCACGGAGGTCACAAACGACGGGTA

Reply:
1. -0.161
2. 1.68

// each listed sequence needs a value for PBM binding z-score
1. TAGCCTAGGTCGTTCAGGGGCCAGTATAGAAAGC
2. ATATGTAGGTTAGCTGGGGTCCTTCAGACTAGGC
3. CGTCCAAGGTCAAAGGTCAATGAAGAGATGACGG
4. CCTTACGGGTCACGTGGTTATAGCACGACGAGCG

Reply:
-0.836
0.538
1.95
0.132

// each listed sequence needs a value for PBM binding z-score
1. CGTCAAAGGTCAAAGGTCAGTGAAGAGATGACGG
2. CCTACTGGGCCAAAAAGGTCATTGATGCCGATAA
3. CCTACTGGGCCAAAAAGTTCATTGATGCCGATAA

Reply:
1. 3.92
2. 0.857
3. 0.294

// each listed sequence needs a value for PBM binding z-score
1. CCTGCTAGGTCATGGTCAGCGAATCTACAGTATG
2. CGTCCAAGGTCTAGGTCAGTGAAAGAGACTCGAA
3. CGTCCAAGGTCACAGAGGTCAGTGAATGCCGAGT
4. CAAACTAGTTCAAGAGGTCAAAGTCCGCTTCCCG
5. CCGAGAAGGTTACGAGGGGGCATTCAGTGCGAAT
6. ACTCGGTGGACAAAGGTCAGAGCTACGCCAGTGA
7. CGTCAAAGATCAAGGTAACGTAACAGAAAGCAGC
8. CCTTACGGGTCACTGACAGGTTATAGCGTTTGGA

Reply:
[-0.334, 0.0377, 2.06, 2.22, 0.612, 0.366, 0.251, 0.964]

---

system: PPARg homodimer (NR concentration 180 nM); assay: PBM binding z-score (relative to random genomic background probes); higher = stronger binding; sequences stand for … in GC…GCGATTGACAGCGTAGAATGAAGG
reported.property: PBM binding z-score

TAGCCTAGGTCACATCGGGCCAGTATACGCTATA :: 0.979
GCTGCTAGGTCAACTGATGGTCACCTAAAGCTCG :: 1.66

// each listed sequence needs a value for PBM binding z-score
1. ATATGTAGGTTACCTGGGGTCATTCAGACTAGGC
2. ATATGTAGGTTACATCCGGGTCATCCAGGCTATG
3. CCTTACGGGTCCCTCCAGGTTATAGCATCGGAGT

Reply:
1: 2.87; 2: 2.45; 3: 0.547

---

system: PPARg:RXRa DBDmut IVT, anti-RXR (DBD mutation: RXRa K156A/R161A, NR concentration 270 nM, RXRa partner concentration 90 nM); experiment: PBM binding z-score (relative to random genomic background probes); higher = stronger binding; sequences stand for … in GC…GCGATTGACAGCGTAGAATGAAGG
reported.property: PBM binding z-score

Use the examples below as a reference point.
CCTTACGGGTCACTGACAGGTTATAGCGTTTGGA :: 2.91
GCTTACAGGTCAAAGGTTATAGCATGAATAGAAT :: 5.27
ACTCGGAGGACAAAGGTCAGGGCTACGCCAGTGA :: 0.813
AGTCAAAGTTGAGGACGAGGTAACGTAAAGCACG :: -0.189
TGTCAAAGGTCAAAGGTAACGTAAGTATCCACAC :: 4.01
CAAACAAGGTCACGAAAGGTCAAAGTCGAATGAC :: 5.71
CGAACTAGGTCAAGGACAGTAAATCTCCGCACGC :: 7.9
TAGCCTAGGTCATGCGGGACAGTATAGTGTCGGC :: 1.71

// each listed sequence needs a value for PBM binding z-score
1. TAGCCTAGTTCATTCAGGGGCCAGTATAGAAAGC
2. CAAACTAGGTCACTAAAGGTCAAAGTCGAATGAC

Reply:
1: 1.65; 2: 8.1

---

system: RARa:RXR (NR concentration 270 nM, RXRa partner concentration 90 nM); assay: PBM binding z-score (relative to random genomic background probes); higher = stronger binding; sequences stand for … in GC…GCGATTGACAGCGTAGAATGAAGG
Rule: PBM binding z-score under 3 gives label 0, otherwise label 1.

CCTAGTTGGTCAAGGTCACATACGCTATAGGTAC :: label 1

Query: Is PBM binding z-score at least 3? Consider "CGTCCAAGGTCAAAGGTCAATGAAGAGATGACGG"
Reply: label 1

Query: Is PBM binding z-score at least 3? Consider "TATCAAAGTTCAAAGGTAACGTAAGTATCCACAC"
Reply: label 1

Query: Is PBM binding z-score at least 3? Consider "TCTAGTTGGTCACGGAGGTCCCACACGACGGGTA"
Reply: label 0

Query: Is PBM binding z-score at least 3? Consider "CAAACGAGGTCAAGAGGTCAAAGTCCGCTTCCCG"
Reply: label 1

Query: Is PBM binding z-score at least 3? Consider "CGTCCAAGGTCAGCGGGTCAGTGAAAGCGACGTG"
Reply: label 1

Query: Is PBM binding z-score at least 3? Consider "AGTCAAAGTTCATCTAGGTCACGTAAGATATGCT"
Reply: label 1

---

test system: RARg homodimer (NR concentration 270 nM); assay: PBM binding z-score (relative to random genomic background probes); higher = stronger binding; sequences stand for … in GC…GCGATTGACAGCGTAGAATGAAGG
reported.property: PBM binding z-score
Answers are plain numbers.

Use the examples below as a reference point.
AGAATGAGGTTAAACGTAGATCAGGGAAGAAAGT :: 1.54
AGCGAAAGGTCGAGGTGAGTATAGAGAAAGGGAA :: 4.24
TCTTGTAGATCGATAGAGGTTAAGAAAGTGCGCT :: 0.389
AGTCAAAGTGCATCTAGGTAACGTAAGATATGCT :: 1.23
CGTCCAAGGTTAAGGTCAGTGAAAGAGACTCGAA :: 4.7
CAAACTAGGTCAAGGTCTAAGTCGGTTTGTGCCA :: 4.71

// each listed sequence needs a value for PBM binding z-score
1. CGTCAAAGGTCAAGGTAACGTAACAGAAAGCAGC
2. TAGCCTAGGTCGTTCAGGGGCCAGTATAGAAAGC
3. ATATGTAGGTTATCTGGGGTCATTCAGACTAGGC
4. AACGAAAGGTCGAAGGTGAGTATACCCACCCGAA

Reply:
1. 8.73
2. 1.27
3. 3.58
4. 3.96

// each listed sequence needs a value for PBM binding z-score
1. ATCGAAAGGTCAAGGTGAGTATAGAGAAAGGGAA
2. ATATGTAGGTTAGGGGTCATTCAGGTTGGTTCGC
3. TAGCCTAGGTCATGCGGGCCAATATAGTGTCGGC
4. CCTAGTTGGTCAAGGTCACACCCGCTATAGGTAC
5. TAGCCTAAGTCATGCGGGCCAGTATAGTGTCGGC
6. CCAACTGGGCCAAAAAGGTCATTGATGCCGATAA
7. AGTCAAAGTTTATCTAGGTAACGTAAGATATGCT
8. CGAACGAGGTCATCCAGGACAGTGAATACATTGA

Reply:
8.56
4.38
4.36
4.56
-0.412
4.35
1.41
6.52

// each listed sequence needs a value for PBM binding z-score
1. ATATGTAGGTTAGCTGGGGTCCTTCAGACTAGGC
2. CTACCAAGGTCAACAAGGTCGTTGATTACTATTC

Reply:
[0.529, 6.92]

// each listed sequence needs a value for PBM binding z-score
1. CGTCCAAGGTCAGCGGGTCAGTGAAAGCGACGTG
2. CGTCCGAGGTCATAGGAGGTCAGTGAAGACAGAT
3. ACTTAAGGGTCAACGAGGTTATAGCACGCGTATA
4. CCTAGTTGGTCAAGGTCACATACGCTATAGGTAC
5. ATATGTAGGTTAAAGGTCATTCAGGTTGGTTCGC
6. CCTACTGGGTCACGAAAGGTCATTGATTCAGTGA
7. AGTCAAAGTTCAGGACGACGTAACGTAAAGCACG
8. ACTTACGGGTCAACGAGGTCATAGCACGCGTATA

Reply:
[6.61, 7.76, 6.85, 4.37, 5.37, 6.81, 4.45, 6.95]

Query: Find the measured PBM binding z-score of "GATACAGGGTCAAGGTCAGAGTACGCGTATTGAT" with RARg homodimer (NR concentration 270 nM) as test system.
Reply: 6.78
